subject of test: MK2 (Homo sapiens (Human), UniProt P49137)
Sequence (P49137 whole entry): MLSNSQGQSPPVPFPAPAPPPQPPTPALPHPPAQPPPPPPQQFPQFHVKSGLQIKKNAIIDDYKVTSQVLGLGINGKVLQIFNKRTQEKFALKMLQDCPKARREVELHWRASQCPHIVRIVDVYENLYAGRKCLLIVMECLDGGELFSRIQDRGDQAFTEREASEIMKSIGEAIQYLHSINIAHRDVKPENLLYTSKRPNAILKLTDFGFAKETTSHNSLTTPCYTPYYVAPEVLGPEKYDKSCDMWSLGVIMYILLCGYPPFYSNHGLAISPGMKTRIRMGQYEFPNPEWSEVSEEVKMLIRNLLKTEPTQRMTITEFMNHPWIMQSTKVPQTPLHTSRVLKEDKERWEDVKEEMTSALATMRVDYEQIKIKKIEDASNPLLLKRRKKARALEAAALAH
method description: MK2 cellular assay, total and phospho-Hsp27 (Serine 78) by MSD ELISA (Thp1)
Assay type: cell-based
pEC50: −log10 of the molar value.
pEC50 for assorted compounds

compound: C[C@@H]1CNc2c(sc3ccc4nc(N(C)c5cc(F)ncn5)ccc4c23)C(=O)N1
pEC50: < 6.00
//
compound: C[C@@H]1CNc2c(sc3ccc4nc(Oc5nc(Cl)ncc5CN5C6CCC5COC6)ccc4c23)C(=O)N1
pEC50: > 7.00
//
compound: C[C@@H]1CNc2c(sc3ccc4nc(Nc5cc(F)nc(OC6CCCN(C)C6)n5)ccc4c23)C(=O)N1 (some centres unmarked)
pEC50: 6.30 to 7.00
//
compound: C[C@@H]1CNc2c(sc3ccc4nc(N(CCN(C)C)c5cc(F)ncn5)ccc4c23)C(=O)N1
pEC50: < 6.00
//
compound: C[C@@H]1CNc2c(sc3ccc4nc(Nc5nc(F)cc(OC6COC6)n5)ccc4c23)C(=O)N1
pEC50: 6.00 to 6.30
//
compound: C[C@@H]1CNc2c(sc3ccc4nc(Oc5nc(Cl)ncc5CN5CC6CC(C6)C5)ccc4c23)C(=O)N1
pEC50: > 7.00
//
compound: COCCOc1nc(F)cc(Nc2ccc3c(ccc4sc5c(c43)NC[C@@H](C)NC5=O)n2)n1
pEC50: 6.30 to 7.00
//
compound: COCCOc1cc(F)nc(Nc2ccc3c(ccc4sc5c(c43)NC[C@@H](C)NC5=O)n2)n1
pEC50: < 6.00
